# System under test: HIV-1 JR-CSF Env T297A (HIV-1 JR-CSF) (UniProt P20871)
# Method description: cell-based or functional assay
Give measured Fold IC50 increase relative to wild-type for each item. Keep answers brief.

*Q* Sample PGT-135 (antibody, V domains shown) VH: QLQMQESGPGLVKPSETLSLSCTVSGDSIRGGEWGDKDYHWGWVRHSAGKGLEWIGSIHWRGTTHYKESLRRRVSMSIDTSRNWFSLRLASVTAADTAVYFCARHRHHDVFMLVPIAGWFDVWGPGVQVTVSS VL: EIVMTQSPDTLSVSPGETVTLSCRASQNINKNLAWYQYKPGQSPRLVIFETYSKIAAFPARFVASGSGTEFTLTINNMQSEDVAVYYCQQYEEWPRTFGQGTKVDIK — what was its Fold IC50 increase relative to wild-type?
*A* > 30 fold

*Q* Param item: PGT-125 (antibody, V domains shown) VH: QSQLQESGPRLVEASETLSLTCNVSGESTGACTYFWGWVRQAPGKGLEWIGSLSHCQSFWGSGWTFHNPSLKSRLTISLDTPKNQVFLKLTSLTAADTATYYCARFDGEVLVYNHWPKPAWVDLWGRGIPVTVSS VL: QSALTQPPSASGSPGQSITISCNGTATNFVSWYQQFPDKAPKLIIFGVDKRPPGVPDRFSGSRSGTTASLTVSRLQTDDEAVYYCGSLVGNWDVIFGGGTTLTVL
*A* 0.9 fold

*Q* PGT-130 (antibody, V domains shown) VH: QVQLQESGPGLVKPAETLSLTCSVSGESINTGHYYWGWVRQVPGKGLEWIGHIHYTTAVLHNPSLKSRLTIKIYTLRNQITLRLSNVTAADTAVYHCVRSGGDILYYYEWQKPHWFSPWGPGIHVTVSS VL: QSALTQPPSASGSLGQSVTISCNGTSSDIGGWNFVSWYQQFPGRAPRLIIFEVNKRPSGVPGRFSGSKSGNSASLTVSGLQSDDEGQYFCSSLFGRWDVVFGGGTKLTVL , same question.
*A* 0.9 fold
